- Measured target: Sterol O-acyltransferase 1 (Rattus norvegicus)
- Sequence (O70536 whole entry): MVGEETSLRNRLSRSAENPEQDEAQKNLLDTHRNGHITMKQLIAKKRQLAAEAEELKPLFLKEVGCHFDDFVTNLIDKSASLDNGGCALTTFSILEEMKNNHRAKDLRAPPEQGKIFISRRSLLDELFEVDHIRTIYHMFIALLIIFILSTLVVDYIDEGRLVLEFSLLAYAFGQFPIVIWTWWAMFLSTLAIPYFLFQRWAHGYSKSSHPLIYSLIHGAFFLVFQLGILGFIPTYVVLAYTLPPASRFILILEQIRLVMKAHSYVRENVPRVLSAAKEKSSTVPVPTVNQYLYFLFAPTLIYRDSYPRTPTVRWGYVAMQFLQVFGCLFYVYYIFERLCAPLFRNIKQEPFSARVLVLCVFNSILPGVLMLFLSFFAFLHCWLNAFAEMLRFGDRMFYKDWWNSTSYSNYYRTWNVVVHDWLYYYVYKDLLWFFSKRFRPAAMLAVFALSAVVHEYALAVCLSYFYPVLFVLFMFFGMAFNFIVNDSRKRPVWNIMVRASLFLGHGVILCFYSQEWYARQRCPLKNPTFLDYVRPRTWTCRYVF
pIC50: −log10 of the molar value.
Measured property: pIC50

Completed entries (count: 3):
| Compound string | Assay value |
| --- | --- |
| CC(C)c1cccc(C(C)C)c1OS(=O)(=O)NC(=O)Oc1ccc(F)cc1F | < 4.30 |
| COc1cccc(OC)c1OC(=O)NS(=O)(=O)Oc1c(C(C)C)cccc1C(C)C | < 4.30 |
| CC(C)c1cccc(C(C)C)c1OS(=O)(=O)NC(=O)Oc1ccc(F)cc1 | < 4.30 |

Query pIC50 on Sterol O-acyltransferase 1 (Rattus norvegicus) for CC(C)c1cccc(C(C)C)c1OC(=O)NS(=O)(=O)N1CCCCC1
< 4.00

Query pIC50 on Sterol O-acyltransferase 1 (Rattus norvegicus) for CC(C)c1ccc(OC(=O)NS(=O)(=O)Oc2c(C(C)C)cccc2C(C)C)c(C(C)C)c1
< 4.30

Query pIC50 on Sterol O-acyltransferase 1 (Rattus norvegicus) for Cc1cc(C(C)(C)C)c(OC(=O)NS(=O)(=O)N(C)CCc2ccccn2)c(C(C)(C)C)c1
4.51

Query pIC50 on Sterol O-acyltransferase 1 (Rattus norvegicus) for COC(=O)NS(=O)(=O)Oc1c(C(C)C)cccc1C(C)C
< 4.00

Query pIC50 on Sterol O-acyltransferase 1 (Rattus norvegicus) for COc1cc(C(C)C)c(OC(=O)NS(=O)(=O)Oc2c(C(C)C)cccc2C(C)C)c(C(C)C)c1
< 4.60

Query pIC50 on Sterol O-acyltransferase 1 (Rattus norvegicus) for CC(C)c1cccc(C(C)C)c1OC(=O)NS(=O)(=O)N(C(C)C)C1CCCCC1
5.29

Query pIC50 on Sterol O-acyltransferase 1 (Rattus norvegicus) for CCCCCCCCCCCCN(CCCCCCCCCCCC)S(=O)(=O)NC(=O)Nc1c(C(C)C)cccc1C(C)C
4.16
